- target_of_assay: GST-Dm-Relish (Drosophila melanogaster, UniProt Q94527 99-473)
- Sequence: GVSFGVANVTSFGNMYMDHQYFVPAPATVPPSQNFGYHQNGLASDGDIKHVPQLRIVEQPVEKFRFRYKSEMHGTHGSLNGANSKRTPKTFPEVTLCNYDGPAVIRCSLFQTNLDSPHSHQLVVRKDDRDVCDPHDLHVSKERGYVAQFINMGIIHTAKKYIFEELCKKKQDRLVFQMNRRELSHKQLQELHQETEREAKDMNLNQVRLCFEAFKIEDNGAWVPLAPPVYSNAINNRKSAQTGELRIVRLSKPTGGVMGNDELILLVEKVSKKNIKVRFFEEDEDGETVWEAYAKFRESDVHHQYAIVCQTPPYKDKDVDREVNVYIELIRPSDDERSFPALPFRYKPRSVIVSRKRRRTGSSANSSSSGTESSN
- assay_summary: protein-binding microarray (PBM); PBM: ~300 nM protein, 6 mM HEPES pH 7.8, 80 mM KCl, 0.5 mM EDTA, 0.5 mM EGTA, 6% glycerol, 35 ng/ul poly-dIdC, 1% milk, 1 h, room temperature; high values mean tight binding
- measurement_setup: dsDNA, one strand shown
Classify by measured binding signal: satisfied if it is equal to or exceeds 4 z-score, not satisfied if it is smaller.

Some solved entries appear below for comparison.
* CCGATTAACATCAGGAAAATTACTGATGTTAATCGGGTCTTGATTCGCTTGACGCTGCTG | not satisfied
* CCGATTAACATCAGGGGAAAGTATGATGTTAATCGGGTCTTGATTCGCTTGACGCTGCTG | not satisfied
* CCGATTAACATCAAATATTCCCATGATGTTAATCGGGTCTTGATTCGCTTGACGCTGCTG | not satisfied
* CCGATTAACATCACCGTTTTCCCTGATGTTAATCGGGTCTTGATTCGCTTGACGCTGCTG | not satisfied
* CCGATTAACATCAAATATCCCCATGATGTTAATCGGGTCTTGATTCGCTTGACGCTGCTG | satisfied
* CCGATTAACATCAGGGGACATTATGATGTTAATCGGGTCTTGATTCGCTTGACGCTGCTG | not satisfied
* CCGATTAACATCACGGATTTCCCTGATGTTAATCGGGTCTTGATTCGCTTGACGCTGCTG | satisfied
* CCGATTAACATCAGGGAATGACCTGATGTTAATCGGGTCTTGATTCGCTTGACGCTGCTG | not satisfied

Now consider a different sequence.
Is the recorded value of binding signal equal to or greater than 4 z-score for this sequence? CCGATTAACATCAGATTCCCCCCTGATGTTAATCGGGTCTTGATTCGCTTGACGCTGCTG
satisfied

====

- target_of_assay: GST-Co-NF-kB (Capsaspora owczarzaki, UniProt F1ARL5 200-546)
- Sequence: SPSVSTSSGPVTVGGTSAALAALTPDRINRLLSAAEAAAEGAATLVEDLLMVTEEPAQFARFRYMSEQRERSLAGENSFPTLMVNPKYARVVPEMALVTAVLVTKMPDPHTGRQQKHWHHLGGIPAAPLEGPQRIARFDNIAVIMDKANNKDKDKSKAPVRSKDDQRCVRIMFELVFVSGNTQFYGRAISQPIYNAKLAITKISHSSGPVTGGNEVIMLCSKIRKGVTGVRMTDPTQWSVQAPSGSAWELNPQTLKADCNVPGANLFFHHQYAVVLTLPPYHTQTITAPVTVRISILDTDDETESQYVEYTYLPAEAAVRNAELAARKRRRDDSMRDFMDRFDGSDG
- assay_summary: protein-binding microarray (PBM); PBM: ~300 nM protein, 6 mM HEPES pH 7.8, 80 mM KCl, 0.5 mM EDTA, 0.5 mM EGTA, 6% glycerol, 35 ng/ul poly-dIdC, 1% milk, 1 h, room temperature; Ap Aiptasia and Nv Nematostella (sea anemones) / Co Capsaspora / Aq Amphimedon (sponge) / Dm Drosophila / Hu human; RHD is the Rel homology domain; high values mean tight binding
- measurement_setup: dsDNA, one strand shown
value_kind: binding signal (z-score)
Answers are plain numbers, in z-score.

Worked examples, 2 sequences total:
• CCGATTAACATCAAATTTCCCACTGATGTTAATCGGGTCTTGATTCGCTTGACGCTGCTG = 4.39
• CCGATTAACATCAGTTTCCCAAATGATGTTAATCGGGTCTTGATTCGCTTGACGCTGCTG = 2.19

Parameters: items (list). Returns: binding signal for each item.
1. CCGATTAACATCAGCGAATTCCCTGATGTTAATCGGGTCTTGATTCGCTTGACGCTGCTG
2. CCGATTAACATCAGAAATTACCCTGATGTTAATCGGGTCTTGATTCGCTTGACGCTGCTG
3. CCGATTAACATCAGGGAACACCCTGATGTTAATCGGGTCTTGATTCGCTTGACGCTGCTG

1: 2.15; 2: 2.87; 3: 2.35
